Biological target: T1, biotinylated recombinant human trimeric ARG2 enzyme (Avi-huARG2-His10) (human, UniProt P78540 23-354, biotinylated)
T1 construct: also called avi-Arg2-His10; bio-ARG2
T1 chain: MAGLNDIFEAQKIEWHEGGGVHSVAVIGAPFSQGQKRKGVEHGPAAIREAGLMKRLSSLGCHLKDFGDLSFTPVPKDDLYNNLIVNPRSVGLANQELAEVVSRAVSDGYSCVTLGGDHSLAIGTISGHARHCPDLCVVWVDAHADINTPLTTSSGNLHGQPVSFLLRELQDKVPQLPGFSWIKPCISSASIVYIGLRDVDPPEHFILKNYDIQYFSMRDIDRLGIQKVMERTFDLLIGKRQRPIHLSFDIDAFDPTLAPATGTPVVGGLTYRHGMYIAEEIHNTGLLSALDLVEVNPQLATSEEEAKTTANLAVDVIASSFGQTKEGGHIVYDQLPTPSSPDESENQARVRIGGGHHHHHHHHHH
Test: BLI (OctetRED), biotinylated ARG2 on streptavidin, Fab as analyte
Quantity Kind: koff (s⁻¹)
Report the figure in s⁻¹ without appending any unit label.

C0021061 Fab (Fab, V domains shown, Human Fab) VH: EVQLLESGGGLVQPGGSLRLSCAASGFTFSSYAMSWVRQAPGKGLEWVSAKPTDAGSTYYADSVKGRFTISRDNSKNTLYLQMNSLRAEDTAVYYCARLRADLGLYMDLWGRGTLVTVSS VL: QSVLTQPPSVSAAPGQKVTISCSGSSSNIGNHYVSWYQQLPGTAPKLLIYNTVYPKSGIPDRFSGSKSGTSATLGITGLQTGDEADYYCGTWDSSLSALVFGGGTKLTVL: 0.000351

# input Give koff for C0021128 Fab (Fab, V domains shown, Human Fab) VH: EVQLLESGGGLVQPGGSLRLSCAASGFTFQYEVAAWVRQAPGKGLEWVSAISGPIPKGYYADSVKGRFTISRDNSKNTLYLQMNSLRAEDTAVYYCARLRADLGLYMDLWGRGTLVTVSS VL: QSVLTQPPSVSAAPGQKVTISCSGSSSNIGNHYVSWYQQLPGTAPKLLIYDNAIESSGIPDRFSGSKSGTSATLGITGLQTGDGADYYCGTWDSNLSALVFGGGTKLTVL
# output 0.000674

These data points were gathered from patent US20220403048A1.
